Molecular target: μ-opioid receptor (Homo sapiens, UniProt P35372)
Sequence (P35372 whole entry, species assumed): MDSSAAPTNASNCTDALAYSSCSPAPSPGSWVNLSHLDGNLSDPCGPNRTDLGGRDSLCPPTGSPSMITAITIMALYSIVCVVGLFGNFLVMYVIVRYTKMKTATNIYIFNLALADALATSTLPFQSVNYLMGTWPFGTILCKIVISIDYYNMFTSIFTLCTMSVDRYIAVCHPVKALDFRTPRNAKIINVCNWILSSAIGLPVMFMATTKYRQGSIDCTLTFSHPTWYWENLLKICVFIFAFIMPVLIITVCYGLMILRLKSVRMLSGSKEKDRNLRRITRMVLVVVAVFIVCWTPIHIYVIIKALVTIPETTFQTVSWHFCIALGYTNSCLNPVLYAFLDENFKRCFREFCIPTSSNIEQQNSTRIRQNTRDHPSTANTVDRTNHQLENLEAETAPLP
Test: μ-opioid receptor [35S]GTPγS functional assay, HEK-293 or CHO cells
Hi! Just check whether EC50 is below 0.3 µM. Below gives rule met, equal or above gives rule not met.

>>> classification("COc1ccc2c(c1)[C@@]1(C)CCN(CC3CC3)C(C2)C1N(C)C(=O)/C=C/c1ccoc1 (stereo in doubt)")
"rule not met"
>>> classification("COc1ccc2c(c1)[C@@]1(C)CCN(C)C(C2)[C@]1(O)c1cccc(C#N)c1")
"rule not met"
>>> classification("CN1CC[C@]2(C)c3cc(O)ccc3CC1[C@H]2COc1ccc(C(N)=O)cc1")
"rule not met"
>>> classification("CN1CC[C@@]2(C)c3cc(O)ccc3C[C@@H]1[C@@H]2NCC1CCN(C(=O)OC(C)(C)C)CC1")
"rule met"
>>> classification("CN1CC[C@]2(C)c3cc(O)ccc3C[C@@H]1[C@H]2Nc1ccc(CCS(N)(=O)=O)cc1")
"rule met"
>>> classification("CN1CC[C@]2(C)c3cc(O)ccc3CC1[C@@H]2COc1ncc([C@H](O)CO)cc1Cl")
"rule not met"
>>> classification("CN1CC[C@]2(C)c3cc(O)ccc3CC1[C@@H]2CC(=O)N1CCC(C(=O)O)CC1")
"rule not met"
>>> classification("COc1ccc2c(c1)[C@@]1(C)CCN(C)C(C2)[C@@H]1c1cccc(-c2nnn[nH]2)c1")
"rule not met"
>>> classification("COc1ccc2c(c1)[C@@]1(C)CCN(C)C(C2)C1N1CCCC(C(=O)O)C1 (stereo partly shown)")
"rule not met"
>>> classification("CN(C(=O)Nc1ccc(C#N)cc1)[C@@H]1C2Cc3ccc(O)cc3[C@@]1(C)CCN2CC1CC1")
"rule not met"
>>> classification("CN1CC[C@]2(C)c3cc(O)ccc3C[C@@H]1[C@H]2COc1cccc(C(=O)O)c1")
"rule not met"
>>> classification("CN1CC[C@]2(C)c3cc(O)ccc3C[C@H]1[C@H]2NCCc1ccc(S(N)(=O)=O)cc1")
"rule not met"
>>> classification("COc1ccc2c(c1)[C@@]1(C)CCN(CC3CC3)[C@H](C2)[C@H]1N(C)CC(=O)O")
"rule not met"
>>> classification("COc1ccc2c(c1)[C@@]1(C)CCN(C)C(C2)[C@]1(O)c1cccc(-c2nnn[nH]2)c1")
"rule not met"
>>> classification("CN1CC[C@]2(C)c3cc(O)ccc3CC1[C@@H]2C(=O)Nc1ccc(C(=O)O)cc1")
"rule not met"
>>> classification("CN1CC[C@@]2(C)c3cc(O)ccc3C[C@@H]1[C@H]2NCCc1ccc(S(N)(=O)=O)cc1")
"rule met"
>>> classification("CN1CC[C@]2(C)c3cc(O)ccc3C[C@@H]1[C@@H]2N(C)C(=O)c1ccc(C(=O)O)cc1")
"rule not met"
>>> classification("CN1CC[C@]2(C)c3cc(O)ccc3C[C@@H]1[C@@H]2N(C)C(=O)c1ccccc1")
"rule not met"
>>> classification("COc1ccc2c(c1)[C@@]1(C)CCN(C)C(C2)[C@]1(O)c1cccc(C(=O)O)c1")
"rule not met"
>>> classification("CN1CC[C@]2(C)c3cc(O)ccc3CC1C2N(C)C(=O)Nc1ccc(C(=O)O)cc1 (stereo in doubt) [Compound 45]")
"rule not met"
>>> classification("COc1ccc2c(c1)[C@@]1(C)CCN(C)C(C2)C1N1CCCC1 (stereo partly shown)")
"rule not met"
>>> classification("COc1ccc2c(c1)[C@@]1(C)CCN(C)C(C2)[C@@]1(O)c1cccc(-c2nnn[nH]2)c1")
"rule not met"
>>> classification("COc1ccc2c(c1)[C@@]1(C)CCN(C)C(C2)[C@@H]1CNC(=O)Cc1ccc(Cl)c(Cl)c1")
"rule met"
>>> classification("COc1ccc2c(c1)[C@@]1(C)CCN(C)C(C2)[C@@H]1c1cccc(C#N)c1")
"rule not met"
>>> classification("CN1CC[C@]2(C)c3cc(O)ccc3C[C@@H]1[C@@H]2N(C)C(=O)c1cccc(C(=O)O)c1")
"rule not met"
>>> classification("CN(C(=O)/C=C/c1ccoc1)[C@@H]1[C@H]2Cc3ccc(O)cc3[C@@]1(C)CCN2CC1CC1")
"rule met"
>>> classification("COc1ccc2c(c1)[C@@]1(C)CCN(C)C(C2)[C@@]1(O)c1cccc(C(N)=O)c1")
"rule not met"
>>> classification("COc1ccc2c(c1)[C@@]1(C)CCN(C)C(C2)[C@@H]1c1cccc(C(=O)O)c1")
"rule not met"
>>> classification("CN1CC[C@]2(C)c3cc(O)ccc3CC1C2Nc1ccc(CCS(N)(=O)=O)cc1 (stereo in doubt)")
"rule not met"
>>> classification("CN(C(=O)/C=C/c1ccoc1)[C@H]1C2Cc3ccc(O)cc3[C@@]1(C)CCN2CC1CC1")
"rule met"
>>> classification("CN(C(=O)Nc1ccc(C#N)cc1)[C@H]1C2Cc3ccc(O)cc3[C@@]1(C)CCN2CC1CCC1")
"rule met"
